- tested.target: HLA-A*02:01 (Homo sapiens, UniProt P04439, D140Y/D185E/D98H/E176V/E277Q/G131W/G231S/I119V/I121R/I166T/I218V/L300P/L318F/N151K/N90K/P208A/P217A/Q86G/Q94H/R138H/R169H/T345S)
- measurement.protocol: MHC binding assay (UV-ligand exchange, ELISA of exchange yield)
- stated.conditions: binding to HLA-A*02:01, UV-ligand exchange
measure.name: Peptide exchange (MHC class I binding score, peptide exchange yield)

// worked examples, Peptide exchange (MHC class I binding score, peptide exchange yield) included
# substance, observed
rows = [
    ("33 (VLLSLLEKV; listed as Homo sapiens) [compound 33]", "“++” (≥20% = ++)"),
    ("567 (SLLPLDDIVRV; listed as Homo sapiens) [compound 567]", "“+++” (≥50 = +++)"),
    ("90 (TLLQIIETV; listed as Homo sapiens) [compound 90]", "“+++” (≥50 = +++)"),
    ("333 (FLPDANSSV; listed as Homo sapiens) [compound 333]", "“++” (≥20% = ++)"),
    ("52 (FLLAHGLGFLL; listed as Homo sapiens) [compound 52]", "“++++” (≥75% = ++++)"),
    ("589 (KLYPQLPAEI; listed as Homo sapiens) [compound 589]", "“+++” (≥50 = +++)"),
]

Query: May I ask what Peptide exchange (MHC class I binding score, peptide exchange yield) has been recorded for 250 (ALSEEGLLVYL; listed as Homo sapiens) [compound 250] ?
Result: “+++” (≥50 = +++)

Query: Requested field: Peptide exchange (MHC class I binding score, peptide exchange yield). Item: 530 (VMYADIGGMDI; listed as Homo sapiens) [compound 530]
Result: “+++” (≥50 = +++)

Query: I'd like to know its Peptide exchange (MHC class I binding score, peptide exchange yield). The substance in question is 64 (YAAPGGLIGV; listed as Homo sapiens) [compound 64]
Result: “++” (≥20% = ++)

Query: Look up Peptide exchange (MHC class I binding score, peptide exchange yield): 409 (LLDAMNYHL; listed as Homo sapiens) [compound 409]
Result: “++” (≥20% = ++)

Query: Which Peptide exchange (MHC class I binding score, peptide exchange yield) value is on record for 182 (MLLEAPGIFL; listed as Homo sapiens) [compound 182] ?
Result: “+++” (≥50 = +++)

Query: Field request: Peptide exchange (MHC class I binding score, peptide exchange yield) | item: 249 (LLDGFLVNV; listed as Homo sapiens) [compound 249]
Result: “+++” (≥50 = +++)

Query: What value of measured Peptide exchange (MHC class I binding score, peptide exchange yield) is listed for 211 (LLWPGAALL; listed as Homo sapiens) [compound 211] ?
Result: “++” (≥20% = ++)

====

- tested.target: HLA-A*02:01 (Homo sapiens, UniProt P04439, D140Y/D185E/D98H/E176V/E277Q/G131W/G231S/I119V/I121R/I166T/I218V/L300P/L318F/N151K/N90K/P208A/P217A/Q86G/Q94H/R138H/R169H/T345S)
- measurement.protocol: MHC binding assay (UV-ligand exchange, ELISA of exchange yield)
- stated.conditions: binding to HLA-A*02:01, UV-ligand exchange
measure.name: Peptide exchange (MHC class I binding score, peptide exchange yield)

# substance, observed
records = [
    ("55 (SLLDLETLSL; listed as Homo sapiens) [compound 55]", "“++++” (≥75% = ++++)"),
    ("395 (ALALGGIAVV; listed as Homo sapiens) [compound 395]", "“++++” (≥75% = ++++)"),
    ("106 (LLYDAVHIVSV; listed as Homo sapiens) [compound 106]", "“+++” (≥50 = +++)"),
    ("241 (SLVEVNPAYSV; listed as Homo sapiens) [compound 241]", "“+++” (≥50 = +++)"),
    ("399 (YLFEPLYHV; listed as Homo sapiens) [compound 399]", "“+++” (≥50 = +++)"),
]

Query: Reported Peptide exchange (MHC class I binding score, peptide exchange yield) for 239 (AAFAGKLLSV; listed as Homo sapiens) [compound 239] : what is it?
Result: “+++” (≥50 = +++)

Query: Given 7 (SLVGLLLYL; listed as Homo sapiens) [compound 7] , state its recorded Peptide exchange (MHC class I binding score, peptide exchange yield).
Result: “++++” (≥75% = ++++)

Query: Recorded Peptide exchange (MHC class I binding score, peptide exchange yield) for 595 (VLLSIYPRV; listed as Homo sapiens) [compound 595] , please?
Result: “+++” (≥50 = +++)

Query: Consider the substance 582 (TLCDVILMV; listed as Homo sapiens) [compound 582] and give its measured Peptide exchange (MHC class I binding score, peptide exchange yield).
Result: “+++” (≥50 = +++)

Hello, the source for this data is patent US10047131B2, in case you need it.
